Provenance of the data: patent US10800792B2

systemName: unphosphorylated-BTK kinase domain (UP-BTK), GST-tagged human BTK (389-659aa) (Homo sapiens (Human), UniProt Q06187)
Sequence (Q06187 389-659): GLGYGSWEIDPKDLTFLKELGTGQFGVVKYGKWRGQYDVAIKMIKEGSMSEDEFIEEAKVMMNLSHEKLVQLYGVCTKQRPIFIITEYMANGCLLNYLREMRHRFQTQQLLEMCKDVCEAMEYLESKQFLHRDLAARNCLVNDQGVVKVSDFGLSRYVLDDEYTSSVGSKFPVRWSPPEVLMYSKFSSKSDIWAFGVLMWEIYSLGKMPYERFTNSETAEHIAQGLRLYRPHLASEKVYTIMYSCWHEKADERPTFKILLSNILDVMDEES
assay: BTK kinase Lanthascreen binding assay
conditionContext: unphosphorylated-BTK kinase domain, 60 minutes incubation, 50 nM Tracer 236; pIC50 = negative log of the IC50 in molar
measuredEndpoint: BTK_I_binding pIC50
API doc: respond with a numeric literal and nothing else, no unit.

IN: Please indicate BTK_I_binding pIC50 recorded for O=C(N[C@@H]1CCCNC1)c1sc2nccc3c2c1NC(=O)N3c1ccc(Oc2ccccc2)cn1
OUT: 6.5

IN: Consider the compound COc1ccccc1Oc1ccc(N2C(=O)Nc3c(C(=O)NC4CCN(C)CC4)sc4nccc2c34)c(C)c1 . State its measured BTK_I_binding pIC50.
OUT: 6.4

IN: Please report the measured BTK_I_binding pIC50 for O=C(NCCN1CCCCC1)c1sc2nccc3c2c1NC(=O)N3c1ccc(Oc2ccccc2)cc1
OUT: 6.1

IN: Give a short answer stating reported BTK_I_binding pIC50 for C=CC(=O)N1CCC(NC(=O)c2sc3nccc4c3c2NC(=O)N4c2ccc(Oc3ccccc3)cc2C)CC1 .
OUT: 6.1

IN: Fill in BTK_I_binding pIC50 for record Cc1cc(OC2CCCC2)ccc1N1C(=O)Nc2c(C(=O)N[C@@H]3CCCNC3)sc3nccc1c23
OUT: 6.4

IN: Report measured BTK_I_binding pIC50; entry is O=C(NC1CCOCC1)c1sc2nccc3c2c1NC(=O)N3c1ccc(Oc2ccccc2)cc1
OUT: 6.7

IN: Determine its reported BTK_I_binding pIC50: CC(=O)N1CC[C@H](NC(=O)c2sc3nccc4c3c2NC(=O)N4c2ccc(Oc3ccccc3)cc2)C1
OUT: 6.3

IN: Quick one: give measured BTK_I_binding pIC50 for O=C(N[C@@H]1CCCNC1)c1sc2nccc3c2c1NC(=O)N3c1ccc(Oc2ccccc2)nc1
OUT: 6.3

IN: Tell me measured BTK_I_binding pIC50 for Cc1cc(OC(C)C)ccc1N1C(=O)Nc2c(C(=O)N[C@@H]3CCCN(C(=O)/C=C/CN(C)C)C3)sc3nccc1c23 please.
OUT: 6.5

IN: Return BTK_I_binding pIC50 for the following compound: CCC(=O)N1CCCC(NC(=O)c2sc3nccc4c3c2NC(=O)N4c2ccc(Oc3ccccc3)cc2C)C1 (stereo not drawn)
OUT: 6.8

IN: Hello, please tell me recorded BTK_I_binding pIC50 for this one: C=CC(=O)N1CC[C@@H](NC(=O)c2sc3nccc4c3c2NC(=O)N4c2cnc(OC(C)C)cc2C)C1 (single isomer, unassigned)
OUT: 7.5

IN: Please indicate BTK_I_binding pIC50 recorded for Cc1cc(Oc2ccccc2)ccc1N1C(=O)Nc2c(C(=O)NC3CCN(C(=O)/C(C#N)=C/C4CC4)CC3)sc3nccc1c23
OUT: 6.4

IN: Please look at this compound and report its BTK_I_binding pIC50: O=C(NCCN1CCOCC1)c1sc2nccc3c2c1NC(=O)N3c1ccc(Oc2ccccc2)cc1
OUT: 6.1

IN: Determine its reported BTK_I_binding pIC50: Cc1cc(Oc2ccccc2)ccc1N1C(=O)Nc2c(C(=O)N[C@H]3CCCN(C)C3)sc3nccc1c23
OUT: 6.0
